# Tested on: mPer2Luc MEF
# assayProcedure: PER2::LUC luminescence relative to vehicle control (fold of vehicle); higher = higher PER2::LUC reporter signal
# assaySetup: time after treatment 24 h; 10 µM
The full ranking holds about 5,300 compounds; the median of “PER2::LUC luminescence relative to vehicle control” is about 0.96, and the highest 2% start at about 1.3. What follows is part of a selection rich in the highest values, with near analogues and random picks from the rest.
Kindly supply the reported PER2::LUC luminescence values for the records listed here.
Simply state the number, no unit and no words.

Ask | // map COc1ccc(-c2cc(=O)c3c(OC)c(OC)c(OC)c(OC)c3o2)cc1 to recorded PER2::LUC luminescence (system: mPer2Luc MEF)
Reply | 0.944

Ask | // map CC(C)CC[C@@H](O)[C@](C)(O)[C@H]1CC[C@@]2(O)C3=CC(=O)[C@]4(O)C[C@@H](O)[C@@H](O)C[C@]4(C)[C@H]3[C@H](O)C[C@]12C to recorded PER2::LUC luminescence (system: mPer2Luc MEF)
Reply | 1.22

Ask | // map Cc1ncc([N+](=O)[O-])n1C to recorded PER2::LUC luminescence (system: mPer2Luc MEF)
Reply | 1.13

Ask | // map CCN(CC)C(=O)C(c1ccccc1)N1CCN(c2ccc(NC(=O)c3ccccc3-c3cccnc3)cc2F)CC1 (stereo not drawn) to recorded PER2::LUC luminescence (system: mPer2Luc MEF)
Reply | 0.968

Ask | // map NCC(O)COc1cccc2ccccc12 (stereo not drawn) to recorded PER2::LUC luminescence (system: mPer2Luc MEF)
Reply | 0.637

Ask | // map CC(=O)Nc1ccc(OC(=O)c2ccccc2O)cc1 to recorded PER2::LUC luminescence (system: mPer2Luc MEF)
Reply | 0.934

Ask | // map CCCCC(CC)COC(=O)c1ccccc1O (stereo not drawn) to recorded PER2::LUC luminescence (system: mPer2Luc MEF)
Reply | 1.07

Ask | // map CCOC(=O)C1=C(COCCN)NC(C)=C(C(=O)OC)[C@@H]1c1ccccc1Cl to recorded PER2::LUC luminescence (system: mPer2Luc MEF)
Reply | 0.445

Ask | // map NS(=O)(=O)c1ccc(-c2c(-c3ccccc3)noc2C(F)F)cc1 to recorded PER2::LUC luminescence (system: mPer2Luc MEF)
Reply | 1.04

Ask | // map CC(=O)N[C@H]1[C@H]([C@H](O)[C@H](O)CO)O[C@@](Oc2c[nH]c3ccc(Br)c(Cl)c23)(C(=O)O)C[C@@H]1O to recorded PER2::LUC luminescence (system: mPer2Luc MEF)
Reply | 1

Ask | // map COc1ccc([C@@H](C)C(=O)c2ccc(O)cc2O)cc1 to recorded PER2::LUC luminescence (system: mPer2Luc MEF)
Reply | 1.1

Ask | // map CCc1c(C(=O)NNC(=O)[C@@H](O)c2cc(F)cc(F)c2)ccc(O)c1C to recorded PER2::LUC luminescence (system: mPer2Luc MEF)
Reply | 1.02

Ask | // map C[C@@H]1O[C@@H](OC[C@H]2O[C@@H](OCCc3ccc(O)c(O)c3)[C@H](O)[C@@H](O[C@@H]3O[C@@H](C)[C@H](O)[C@@H](O)[C@H]3O)[C@@H]2OC(=O)/C=C/c2ccc(O)c(O)c2)[C@H](O)[C@H](O)[C@H]1O to recorded PER2::LUC luminescence (system: mPer2Luc MEF)
Reply | 1.09

Ask | // map O=c1cc(-c2ccccc2F)[nH]c2cc3c(cc12)OCO3 to recorded PER2::LUC luminescence (system: mPer2Luc MEF)
Reply | 0.9

Ask | // map CSc1ccc(OCc2ncc([N+](=O)[O-])n2C)cc1 to recorded PER2::LUC luminescence (system: mPer2Luc MEF)
Reply | 1.41

Ask | // map C[C@H](CCC(=O)NCCC[N+](C)(C)CCCS(=O)(=O)[O-])[C@H]1CC[C@H]2[C@@H]3[C@H](O)C[C@@H]4C[C@H](O)CC[C@]4(C)[C@H]3C[C@H](O)[C@]12C to recorded PER2::LUC luminescence (system: mPer2Luc MEF)
Reply | 1.06

Ask | // map COc1ccc2oc(-c3ccccc3)c(OC)c(=O)c2c1 to recorded PER2::LUC luminescence (system: mPer2Luc MEF)
Reply | 1.54

Ask | // map NC(=O)c1ccc2nc(-c3ccc(Oc4ccc(Cl)cc4)cc3)[nH]c2c1 to recorded PER2::LUC luminescence (system: mPer2Luc MEF)
Reply | 1.29

Ask | // map OCC1OC(O)CC(O)C1O (stereo not drawn) to recorded PER2::LUC luminescence (system: mPer2Luc MEF)
Reply | 1.15

Ask | // map NC(=O)c1ncn(C2OC(COP(=O)(O)O)C(O)C2O)c1N (stereo not drawn) to recorded PER2::LUC luminescence (system: mPer2Luc MEF)
Reply | 1.36

Ask | // map COc1ccccc1O to recorded PER2::LUC luminescence (system: mPer2Luc MEF)
Reply | 0.97

Ask | // map CCOC(=O)CCCCCCCCCCCN(C)C(=O)CO[C@H](C)[C@@H](C)OCC(=O)N(C)CCCCCCCCCCCC(=O)OCC to recorded PER2::LUC luminescence (system: mPer2Luc MEF)
Reply | 1.2

Ask | // map COc1ccc(C(=O)c2ccccc2O)c(O)c1 to recorded PER2::LUC luminescence (system: mPer2Luc MEF)
Reply | 1.02

Ask | // map COc1ccc(CC(=O)c2ccc(O)cc2O)cc1 to recorded PER2::LUC luminescence (system: mPer2Luc MEF)
Reply | 1.63

Ask | // map COc1cc(/C=C/C(=O)c2ccc(O)cc2O)ccc1O to recorded PER2::LUC luminescence (system: mPer2Luc MEF)
Reply | 1.02

Ask | // map COc1cccc(-c2cc(=O)c3cc(OC)ccc3o2)c1 to recorded PER2::LUC luminescence (system: mPer2Luc MEF)
Reply | 1.22

Ask | // map Cc1nnc(-c2sc(NC(=O)[C@H](C(C)C)n3c(=O)[nH]c4ccccc4c3=O)nc2C)o1 to recorded PER2::LUC luminescence (system: mPer2Luc MEF)
Reply | 1.04

Ask | // map CC(C)CCC[C@@H](C)[C@H]1CC[C@H]2[C@@H]3C=CC4=CC(=O)CC[C@]4(C)[C@H]3CC[C@]12C to recorded PER2::LUC luminescence (system: mPer2Luc MEF)
Reply | 0.981

Ask | // map c1ccc2c3c([nH]c2c1)[C@H]1[C@@H]2CC[C@@H]([C@@H]4CCCN[C@@H]42)N1CC3 to recorded PER2::LUC luminescence (system: mPer2Luc MEF)
Reply | 1.23

Ask | // map COc1ccc(C(=O)c2ccccc2)c(O)c1 to recorded PER2::LUC luminescence (system: mPer2Luc MEF)
Reply | 1.22

Ask | // map CC(=O)O[C@H](CC(=O)O)C[N+](C)(C)C to recorded PER2::LUC luminescence (system: mPer2Luc MEF)
Reply | 1.03

Ask | // map COc1ccc2c(=O)c(OC)c(-c3ccccc3)oc2c1 to recorded PER2::LUC luminescence (system: mPer2Luc MEF)
Reply | 0.767

Ask | // map COc1ccc(C(C)=O)c(O)c1 to recorded PER2::LUC luminescence (system: mPer2Luc MEF)
Reply | 0.967
